- Test system: Fibroblast
- Assay Procedure: Multiplex assay against human fibroblast
- Format: toxicity, cell-based
- Experimental Setup: 48 h, 1 µM, compound concentration 1 uM
Readings of Population Mitochondria Different-Phenotype (%) for the listed compounds
Give the number; % is assumed, so skip it.

Illustrative cases are given below, each with its answer.
1. COc1cc(Nc2ncc3c(n2)-c2ccc(Cl)cc2C(c2c(F)cccc2OC)=NC3)ccc1C(=O)O :: 5
2. CN1CCN(c2nc3cc(C(F)(F)F)ccc3n3cccc23)CC1.O=C(O)/C=C\C(=O)O.O=C(O)/C=C\C(=O)O :: 2

[Q] For Fibroblast, provide Population Mitochondria Different-Phenotype (%) of CN1CCN(c2ccc(Nc3c4ccccc4nc4ccccc34)cc2)CC1.Cl.Cl.O please.
[A] 4

[Q] Next entry: c1cc(OCCCN2CCCCC2)ccc1CN1CCCCC1
[A] 2

[Q] Likewise for Cc1nn(C)c2nc(NNC(=O)Nc3cc(Cl)nc(Cl)c3)cc(C(C)C)c12 ?
[A] 2
